Give measured viability for each item. Keep answers brief.
Settings: cell viability/%
Where a SMILES comes first, the peptide text is derived from it. [ ]: non-standard residue; d: D form. The star is where a group is joined. NHCH2CH2OH = OCCN*; For = O=C*
Give the quantity in %, number only.

Ask | State the recorded viability for this entry: CC(C)C[C@@H](NC(=O)[C@H](Cc1c[nH]c2ccccc12)NC(=O)[C@H](NC(=O)[C@H](Cc1c[nH]c2ccccc12)NC(=O)[C@@H](CC(C)C)NC(=O)[C@H](Cc1c[nH]c2ccccc12)NC(=O)[C@@H](CC(C)C)NC(=O)[C@@H](NC(=O)[C@H](NC(=O)[C@H](C)NC(=O)[C@H](NC(=O)[C@H](C)NC(=O)CNC(=O)[C@@H](NC=O)C(C)C)[C@H](C)O)C(C)C)C(C)C)C(C)C)C(=O)N[C@@H](Cc1c[nH]c2ccccc12)C(=O)NCCO [compound 1509] (For-VGA[dT]A[dV]V[dL]W[dL]W[dV]W[dL]W-NHCH2CH2OH)
Reply | 100

Ask | State the recorded viability for this entry: CC(C)C[C@@H](NC(=O)[C@H](Cc1c[nH]c2ccccc12)NC(=O)[C@H](NC(=O)[C@@H](NC(=O)[C@H](NC(=O)[C@H](C)NC(=O)[C@H](NC(=O)[C@H](C)NC(=O)CNC(=O)[C@@H](NC=O)C(C)C)C(C)C)[C@H](C)O)C(C)C)C(C)C)C(=O)N[C@@H](Cc1c[nH]c2ccccc12)C(=O)N[C@H](CC(C)C)C(=O)N[C@@H](Cc1c[nH]c2ccccc12)C(=O)N[C@@H](C(=O)N[C@@H](Cc1c[nH]c2ccccc12)C(=O)NCCO)C(C)C [compound 8141] (For-VGA[dV]A[dT]V[dV]W[dL]W[dL]W[dV]W-NHCH2CH2OH)
Reply | 100

Ask | State the recorded viability for this entry: CC(C)C[C@@H](NC(=O)[C@H](Cc1c[nH]c2ccccc12)NC(=O)[C@H](NC(=O)[C@@H](NC(=O)[C@H](NC(=O)[C@H](C)NC(=O)[C@H](NC(=O)[C@H](C)NC(=O)CNC(=O)[C@@H](NC=O)C(C)C)C(C)C)C(C)C)C(C)C)[C@H](C)O)C(=O)N[C@@H](Cc1c[nH]c2ccccc12)C(=O)N[C@H](CC(C)C)C(=O)N[C@@H](Cc1c[nH]c2ccccc12)C(=O)N[C@@H](C(=O)N[C@@H](Cc1c[nH]c2ccccc12)C(=O)NCCO)C(C)C [compound 1523] (For-VGA[dV]A[dV]V[dT]W[dL]W[dL]W[dV]W-NHCH2CH2OH)
Reply | 100

Ask | State the recorded viability for this entry: CC(C)C[C@@H](NC(=O)[C@H](Cc1c[nH]c2ccccc12)NC(=O)[C@@H](CC(C)C)NC(=O)[C@@H](NC(=O)[C@H](NC(=O)[C@H](C)NC(=O)[C@H](NC(=O)[C@H](C)NC(=O)CNC(=O)[C@@H](NC=O)C(C)C)C(C)C)C(C)C)C(C)C)C(=O)N[C@@H](Cc1c[nH]c2ccccc12)C(=O)N[C@@H](C(=O)N[C@@H](Cc1c[nH]c2ccccc12)C(=O)N[C@@H](C(=O)N[C@@H](Cc1c[nH]c2ccccc12)C(=O)NCCO)C(C)C)C(C)C [compound 100] (For-VGA[dV]A[dV]V[dL]W[dL]W[dV]W[dV]W-NHCH2CH2OH)
Reply | 9.5

Ask | State the recorded viability for this entry: CC(C)C[C@@H](NC(=O)[C@H](Cc1c[nH]c2ccccc12)NC(=O)[C@H](NC(=O)[C@H](Cc1c[nH]c2ccccc12)NC(=O)[C@@H](CC(C)C)NC(=O)[C@@H](NC(=O)[C@H](NC(=O)[C@H](C)NC(=O)[C@H](NC(=O)[C@H](C)NC(=O)CNC(=O)[C@@H](NC=O)C(C)C)C(C)C)C(C)C)C(C)C)C(C)C)C(=O)N[C@@H](Cc1c[nH]c2ccccc12)C(=O)N[C@@H](C(=O)N[C@@H](Cc1c[nH]c2ccccc12)C(=O)NCCO)[C@H](C)O [compound 8580] (For-VGA[dV]A[dV]V[dL]W[dV]W[dL]W[dT]W-NHCH2CH2OH)
Reply | 60.6

Ask | State the recorded viability for this entry: CNC(=O)C[C@@H](NC(=O)[C@@H](NC(=O)[C@H](NC(=O)[C@H](C)NC(=O)[C@@H](CC(C)C)NC(=O)[C@H](C)NC(=O)CNC(=O)[C@@H](NC=O)C(C)C)C(C)C)C(C)C)C(=O)N[C@@H](Cc1c[nH]c2ccccc12)C(=O)N[C@@H](C(=O)N[C@@H](Cc1c[nH]c2ccccc12)C(=O)N[C@H](CC(C)C)C(=O)N[C@@H](Cc1c[nH]c2ccccc12)C(=O)N[C@H](CC(C)C)C(=O)N[C@@H](Cc1c[nH]c2ccccc12)C(=O)NCCO)C(C)C [compound 2118] (For-VGA[dL]A[dV]V[dD](NHMe)W[dV]W[dL]W[dL]W-NHCH2CH2OH)
Reply | 100

Ask | State the recorded viability for this entry: CC(C)C[C@@H](NC(=O)[C@H](C)NC(=O)[C@H](NC(=O)[C@H](C)NC(=O)CNC(=O)[C@@H](NC=O)C(C)C)[C@H](C)O)C(=O)N[C@H](C(=O)N[C@H](CC(C)C)C(=O)N[C@@H](Cc1c[nH]c2ccccc12)C(=O)N[C@@H](C(=O)N[C@@H](Cc1c[nH]c2ccccc12)C(=O)N[C@H](CC(C)C)C(=O)N[C@@H](Cc1c[nH]c2ccccc12)C(=O)N[C@H](CC(C)C)C(=O)N[C@@H](Cc1c[nH]c2ccccc12)C(=O)NCCO)[C@H](C)O)C(C)C [compound 131] (For-VGA[dT]A[dL]V[dL]W[dT]W[dL]W[dL]W-NHCH2CH2OH)
Reply | 100

Ask | State the recorded viability for this entry: CC(C)C[C@@H](NC(=O)[C@H](Cc1c[nH]c2ccccc12)NC(=O)[C@@H](CC(C)C)NC(=O)[C@H](Cc1c[nH]c2ccccc12)NC(=O)[C@H](NC(=O)[C@H](Cc1c[nH]c2ccccc12)NC(=O)[C@@H](CC(C)C)NC(=O)[C@@H](NC(=O)[C@H](NC(=O)[C@H](C)NC(=O)[C@H](NC(=O)[C@H](C)NC(=O)CNC(=O)[C@@H](NC=O)C(C)C)C(C)C)[C@H](C)O)C(C)C)C(C)C)C(=O)N[C@@H](Cc1c[nH]c2ccccc12)C(=O)NCCO [compound 2085] (For-VGA[dV]A[dT]V[dL]W[dV]W[dL]W[dL]W-NHCH2CH2OH)
Reply | 100

* * *

Test system: P388 mouse leukemia cells
Conditions: 92 h
Where a SMILES comes first, the peptide text is derived from it. [ ]: non-standard residue; d: D form. The star is where a group is joined. NHCH2CH2OH = OCCN*; For = O=C*
reported property: cell viability/% (%)
Give the quantity in %, number only.

Ask | State the recorded cell viability/% for this entry: CC(C)C[C@@H](NC(=O)[C@H](Cc1c[nH]c2ccccc12)NC(=O)[C@@H](CC(C)C)NC(=O)[C@H](Cc1c[nH]c2ccccc12)NC(=O)[C@@H](CC(C)C)NC(=O)[C@H](Cc1c[nH]c2ccccc12)NC(=O)[C@@H](CC(C)C)NC(=O)[C@@H](NC(=O)[C@H](NC(=O)[C@H](C)NC(=O)[C@H](NC(=O)[C@H](C)NC(=O)CNC(=O)[C@@H](NC=O)C(C)C)C(C)C)C(C)C)C(C)C)C(=O)N[C@@H](Cc1c[nH]c2ccccc12)C(=O)NCCO [compound 7864] (For-VGA[dV]A[dV]V[dL]W[dL]W[dL]W[dL]W-NHCH2CH2OH)
Reply | 10.8

Ask | State the recorded cell viability/% for this entry: CC(C)C[C@@H](NC(=O)[C@H](C)NC(=O)CNC(=O)[C@@H](NC=O)C(C)C)C(=O)N[C@@H](C)C(=O)N[C@@H](C(=O)N[C@H](C(=O)N[C@@H](C(=O)N[C@@H](Cc1c[nH]c2ccccc12)C(=O)N[C@H](CC(C)C)C(=O)N[C@@H](Cc1c[nH]c2ccccc12)C(=O)N[C@H](CC(C)C)C(=O)N[C@@H](Cc1c[nH]c2ccccc12)C(=O)N[C@@H](C(=O)N[C@@H](Cc1c[nH]c2ccccc12)C(=O)NCCO)C(C)C)[C@H](C)O)C(C)C)C(C)C [compound 6702] (For-VGA[dL]A[dV]V[dT]W[dL]W[dL]W[dV]W-NHCH2CH2OH)
Reply | 100.0
